What log10 of EC50 was measured for each of the following?
# target-desc: Adrenergic receptor alpha-1 (Homo sapiens, UniProt P35348+P25100+P35368)
# assay-comment: Tested for its inhibitory activity against alpha-1 adrenoceptor in guinea pig ileum
# Assay type: tissue-based, Cavia porcellus
# assay-setup: target entry is the homologue from another species
Lab note - EC50 converted to log10 from values in µM.

{"compound": "Cl.c1ccc2c(Cc3c[nH]cn3)cccc2c1", "log10 of EC50": 0.32}

Give me log10 of EC50 for each of these compounds, listed below.
1. Cc1cccc(C(C)c2c[nH]cn2)c1C (stereo unspecified)
2. Cl.OC(c1c[nH]cn1)c1cccc2ccccc12 (stereo unspecified)
3. CC(c1c[nH]cn1)c1cccc2ccccc12 (stereo in doubt; S-(-)-2)
4. CC(c1c[nH]cn1)c1cccc2ccccc12 (stereo in doubt; S-(+)-2)

Response:
[0.07, 1.10, 1.03, 0.92]

Lab note: CC(c1c[nH]cn1)c1cccc2ccccc12 (stereo in doubt; 2) gave log10 of EC50 of 0.76

----------
# assay-comment: Ratio between IC50 values of alpha 1 and alpha 2 receptors
Rule: Ratio below 3 gives YES, anything at or above gives NO.

The following compounds have reported results that may help.
{"compound": "O=C(O)C(=O)O.O=C(c1c[nH]cn1)c1cccc2ccccc12", "qualitative-label": "YES"}
{"compound": "CC(c1c[nH]cn1)c1cccc2ccccc12 (stereo in doubt; 2)", "qualitative-label": "NO"}
{"compound": "CC(c1c[nH]cn1)c1cccc2ccccc12 (stereo in doubt; S-(-)-2)", "qualitative-label": "NO"}
{"compound": "Cl.OC(c1c[nH]cn1)c1cccc2ccccc12 (stereo not drawn)", "qualitative-label": "YES"}
{"compound": "Cl.c1ccc2c(Cc3c[nH]cn3)cccc2c1", "qualitative-label": "YES"}
{"compound": "COC(c1c[nH]cn1)c1cccc2ccccc12.Cl (stereo not drawn)", "qualitative-label": "NO"}

Turning to the following compound.
Query: Confirm or reject: Ratio of CC(c1c[nH]cn1)c1cccc2ccccc12 (stereo in doubt; S-(+)-2) lies strictly below 3
Response: NO

----------
I'd appreciate it if you could supply Ratio values for the items below.
# target-desc: Adrenergic receptor alpha (Rattus norvegicus) (UniProt P15823+P23944+P43140+P22086+P19328+P22909)
# assay-comment: Ratio between EC50 values of alpha 1 and alpha 2 receptors
# Format: protein assay
Give bare numbers.

I'm hoping you can list Ratio for every molecule here, please.
1. CC(c1c[nH]cn1)c1cccc2ccccc12 (stereo in doubt; S-(+)-2)
2. Cl.OC(c1c[nH]cn1)c1cccc2ccccc12 (centres undefined)
3. Cl.c1ccc2c(Cc3c[nH]cn3)cccc2c1
4. CC(c1c[nH]cn1)c1cccc2ccccc12 (stereo in doubt; 2)

Response:
752
33.8
117
643

----------
# target-desc: Adrenergic receptor alpha-2 (Homo sapiens, UniProt P08913+P18825+P18089)
# Sequence (P08913 whole entry): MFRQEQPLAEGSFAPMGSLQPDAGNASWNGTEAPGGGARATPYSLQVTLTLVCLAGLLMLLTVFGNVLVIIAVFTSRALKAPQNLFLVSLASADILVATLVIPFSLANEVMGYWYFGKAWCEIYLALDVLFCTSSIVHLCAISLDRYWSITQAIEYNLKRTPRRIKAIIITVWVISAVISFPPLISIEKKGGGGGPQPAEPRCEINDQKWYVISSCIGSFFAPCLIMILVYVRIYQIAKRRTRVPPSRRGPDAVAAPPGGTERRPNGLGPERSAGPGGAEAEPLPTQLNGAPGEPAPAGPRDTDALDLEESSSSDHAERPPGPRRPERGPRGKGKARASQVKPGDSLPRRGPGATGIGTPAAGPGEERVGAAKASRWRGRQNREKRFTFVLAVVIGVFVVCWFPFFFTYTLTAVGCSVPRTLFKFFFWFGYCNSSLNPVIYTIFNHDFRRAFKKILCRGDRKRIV
# Sequence (P18825 whole entry): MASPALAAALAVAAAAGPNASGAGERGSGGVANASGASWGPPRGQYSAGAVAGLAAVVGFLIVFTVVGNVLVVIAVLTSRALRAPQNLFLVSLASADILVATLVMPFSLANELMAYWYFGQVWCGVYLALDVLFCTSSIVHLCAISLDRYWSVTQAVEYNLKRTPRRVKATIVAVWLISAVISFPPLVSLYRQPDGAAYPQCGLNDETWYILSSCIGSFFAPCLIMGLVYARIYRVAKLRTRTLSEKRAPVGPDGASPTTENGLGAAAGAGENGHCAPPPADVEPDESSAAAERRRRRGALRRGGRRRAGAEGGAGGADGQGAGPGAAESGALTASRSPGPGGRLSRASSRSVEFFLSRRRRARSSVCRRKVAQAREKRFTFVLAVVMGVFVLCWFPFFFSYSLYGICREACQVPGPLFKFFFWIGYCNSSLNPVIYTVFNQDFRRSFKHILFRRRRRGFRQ
# Sequence (P18089 whole entry): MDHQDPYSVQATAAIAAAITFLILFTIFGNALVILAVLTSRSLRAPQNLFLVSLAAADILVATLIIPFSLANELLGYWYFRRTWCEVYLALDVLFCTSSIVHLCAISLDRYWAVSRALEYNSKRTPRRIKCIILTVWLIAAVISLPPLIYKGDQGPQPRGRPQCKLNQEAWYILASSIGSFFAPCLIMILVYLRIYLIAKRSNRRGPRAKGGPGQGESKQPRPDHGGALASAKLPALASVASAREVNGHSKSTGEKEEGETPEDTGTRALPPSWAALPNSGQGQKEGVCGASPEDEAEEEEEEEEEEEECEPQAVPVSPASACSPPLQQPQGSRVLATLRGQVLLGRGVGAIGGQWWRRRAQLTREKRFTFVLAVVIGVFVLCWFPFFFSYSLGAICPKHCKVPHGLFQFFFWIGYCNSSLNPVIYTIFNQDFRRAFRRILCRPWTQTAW
# assay-comment: Tested for its inhibitory activity against alpha-2 adrenoceptor in guinea pig ileum
# Format: tissue-based, Cavia porcellus
# assay-setup: target entry is the homologue from another species
Returns: string. Value is true if measured EC50 is below 400 nM, and false if it is greater than or equal to it.

Please review the following examples before continuing.
{"compound": "CC(c1c[nH]cn1)c1cccc2ccccc12 (stereo in doubt; 2)", "qualitative-label": "true"}
{"compound": "Cl.c1ccc2c(Cc3c[nH]cn3)cccc2c1", "qualitative-label": "true"}
{"compound": "CC(c1c[nH]cn1)c1cccc2ccccc12 (stereo in doubt; S-(+)-2)", "qualitative-label": "true"}
{"compound": "COC(c1c[nH]cn1)c1cccc2ccccc12.Cl (stereo not given)", "qualitative-label": "false"}

Now for a further compound.
Query: is_below(EC50, 400 nM) for Cl.OC(c1c[nH]cn1)c1cccc2ccccc12 (stereo not given) ?
Response: true

----------
# target-desc: Adrenergic receptor alpha-2 (Rattus norvegicus, UniProt P22086+P19328+P22909)
# Sequence (P22086 whole entry): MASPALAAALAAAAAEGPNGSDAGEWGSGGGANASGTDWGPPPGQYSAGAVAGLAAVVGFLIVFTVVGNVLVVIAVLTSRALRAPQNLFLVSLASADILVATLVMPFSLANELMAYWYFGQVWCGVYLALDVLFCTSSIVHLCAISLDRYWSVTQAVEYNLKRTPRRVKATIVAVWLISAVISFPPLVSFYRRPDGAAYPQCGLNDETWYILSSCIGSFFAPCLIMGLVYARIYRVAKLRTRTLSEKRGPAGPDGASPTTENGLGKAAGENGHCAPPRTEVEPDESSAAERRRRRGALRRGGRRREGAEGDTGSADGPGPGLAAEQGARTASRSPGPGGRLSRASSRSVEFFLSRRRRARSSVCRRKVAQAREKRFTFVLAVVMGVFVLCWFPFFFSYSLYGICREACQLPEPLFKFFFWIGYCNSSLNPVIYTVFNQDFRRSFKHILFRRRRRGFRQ
# Sequence (P19328 whole entry): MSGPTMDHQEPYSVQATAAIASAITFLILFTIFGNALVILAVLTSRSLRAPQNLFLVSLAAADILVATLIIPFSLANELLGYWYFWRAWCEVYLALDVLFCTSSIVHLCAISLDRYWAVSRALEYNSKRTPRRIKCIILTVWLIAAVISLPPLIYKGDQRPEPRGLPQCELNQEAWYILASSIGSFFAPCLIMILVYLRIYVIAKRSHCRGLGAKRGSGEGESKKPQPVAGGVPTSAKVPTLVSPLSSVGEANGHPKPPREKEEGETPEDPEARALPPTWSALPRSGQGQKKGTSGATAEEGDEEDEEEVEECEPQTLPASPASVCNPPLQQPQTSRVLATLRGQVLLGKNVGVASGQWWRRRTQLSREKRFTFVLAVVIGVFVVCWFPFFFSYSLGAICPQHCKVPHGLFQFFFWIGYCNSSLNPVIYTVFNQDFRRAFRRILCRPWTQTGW
# Sequence (P22909 whole entry): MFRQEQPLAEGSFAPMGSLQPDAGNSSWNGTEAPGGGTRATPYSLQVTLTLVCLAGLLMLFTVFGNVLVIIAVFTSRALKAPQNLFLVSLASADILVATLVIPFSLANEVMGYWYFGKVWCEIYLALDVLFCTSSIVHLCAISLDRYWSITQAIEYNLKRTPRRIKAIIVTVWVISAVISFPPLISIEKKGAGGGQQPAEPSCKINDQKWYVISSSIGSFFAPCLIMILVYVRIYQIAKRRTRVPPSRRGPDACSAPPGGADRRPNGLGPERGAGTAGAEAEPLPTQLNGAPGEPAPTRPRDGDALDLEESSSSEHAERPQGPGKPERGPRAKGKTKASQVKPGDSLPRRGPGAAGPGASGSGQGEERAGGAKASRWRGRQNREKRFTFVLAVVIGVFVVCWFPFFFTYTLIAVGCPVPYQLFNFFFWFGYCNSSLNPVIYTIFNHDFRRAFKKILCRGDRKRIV
# assay-comment: Tested for its binding affinity against alpha-2 receptor in rat brain membrane
# Assay type: cell membranes
Kindly state Ki for each of the entries shown.
Give bare numbers, in nM.

{"compound": "Cl.OC(c1c[nH]cn1)c1cccc2ccccc12 (centres undefined)", "Ki (nM)": 8810}
{"compound": "COC(c1c[nH]cn1)c1cccc2ccccc12.Cl (centres undefined)", "Ki (nM)": 8582}
{"compound": "CC(c1c[nH]cn1)c1cccc2ccccc12 (stereo in doubt; S-(-)-2)", "Ki (nM)": 24}
{"compound": "Cc1cccc(C(C)c2c[nH]cn2)c1C (centres undefined)", "Ki (nM)": 19}
{"compound": "O=C(O)C(=O)O.O=C(c1c[nH]cn1)c1cccc2ccccc12", "Ki (nM)": 31754}
{"compound": "CC(c1c[nH]cn1)c1cccc2ccccc12 (stereo in doubt; 2)", "Ki (nM)": 17}
{"compound": "CC(c1c[nH]cn1)c1cccc2ccccc12 (stereo in doubt; S-(+)-2)", "Ki (nM)": 11}

Next compound, please.
GET /value?item= Cl.c1ccc2c(Cc3c[nH]cn3)cccc2c1 &field=Ki returns 68
